Test system: Microbacterium alconae
Test: In vitro activity (MIC) by agar and broth dilution methods against clinical isolates
Format: cell-based
Details: clinical isolate MCC 11639; read-out: minimum inhibitory concentration (MIC)
Protocol: The activity levels were determined as MIC (minimum inhibitory concentration) values. In order to compare the activity of the compounds of the present invention to other antibiotics, MIC values for representatives quinolones, aminoglycosides, β-lactams and other types of antibiotics were also determined. […] The MCC numbers (e.g., “MCC 10647”) represent separate clinical isolates of the two Microbacterium species tested.

{"Compound": "CC[C@H]1OC(=O)[C@H](C)[C@@H](O[C@H]2C[C@@](C)(OC)[C@@H](O)[C@H](C)O2)[C@H](C)[C@@H](O[C@@H]2O[C@H](C)C[C@H](N(C)C)[C@H]2O)[C@](C)(O)C[C@@H](C)C(=O)[C@H](C)[C@@H](O)[C@]1(C)O", "Target": "Microbacterium alconae", "Measurement unit": "µg/mL", "MIC": 2}
{"Compound": "Cc1onc(-c2ccccc2)c1C(=O)N[C@@H]1C(=O)N2[C@@H]1SC(C)(C)[C@@H]2C(=O)O", "Target": "Microbacterium alconae", "Measurement unit": "µg/mL", "MIC": 32}
{"Compound": "O=C(N[C@H](CO)[C@H](O)c1ccc([N+](=O)[O-])cc1)C(Cl)Cl", "Target": "Microbacterium alconae", "Measurement unit": "µg/mL", "MIC": 16}
{"Compound": "CCC[C@@H]1C[C@@H](C(=O)N[C@@H]([C@H]2O[C@H](SC)[C@H](O)[C@@H](O)[C@H]2O)[C@H](C)Cl)N(C)C1", "Target": "Microbacterium alconae", "Measurement unit": "µg/mL", "MIC": 4}
{"Compound": "CN(C)[C@@H]1C(O)=C(C(N)=O)C(=O)[C@@]2(O)C(O)=C3C(=O)c4c(O)cccc4[C@@](C)(O)[C@H]3C[C@@H]12", "Target": "Microbacterium alconae", "Measurement unit": "µg/mL", "MIC": 1}
{"Compound": "NC[C@H]1O[C@H](O[C@H]2[C@H](O)[C@@H](O[C@H]3O[C@H](CO)[C@@H](O)[C@H](N)[C@H]3O)[C@H](N)C[C@@H]2N)[C@H](N)C[C@@H]1O", "Target": "Microbacterium alconae", "Measurement unit": "µg/mL", "MIC": 16}
{"Compound": "CC1COc2c(N3CCN(C)CC3)c(F)cc3c(=O)c(C(=O)O)cn1c23 (stereo not shown)", "Target": "Microbacterium alconae", "Measurement unit": "µg/mL", "MIC": 4}

Attribution: patent US6440964B1
